Test: ATP-PPi exchange assay (amino acid activation)
Assay type: biochemical
Conditions: nsAA pAzF
// reported Km for each item listed

{"columns": ["molecule", "Km [µM]"],
 "data": [
  ["pAcFRS.1: pAcFRS variant A167D, SEQ ID NO: 2 (protein) MDEFEMIKRNTSEIISEEELREVLKKDEKSALIGFEPSGKIHLGHYLQIKKMIDLQNAGFDIIILLADLHAYLNQKGELDEIRKIGDYNKKVFEAMGLKAKYVYGSEFQLDKDYTLNVYRLALKTTLKRARRSMELIAREDENPKVAEVIYPIMQVNGCHYRGVDVDVGGMEQRKIHMLARELLPKKVVCIHNPVLTGLDGEGKMSSSKGNFIAVDDSPEEIRAKIKKAYCPAGVVEGNPIMEIAKYFLEYPLTIKRPEKFGGDLTVNSYEELESLFKNKELHPMRLKNAVAEELIKILEPIRKRL", 1740],
  ["pAzFRS.1.t1: pAcFRS variant D158V, I159M, L162D, A167Y, R257G, SEQ ID NO: 11 (protein) MDEFEMIKRNTSEIISEEELREVLKKDEKSALIGFEPSGKIHLGHYLQIKKMIDLQNAGFDIIILLADLHAYLNQKGELDEIRKIGDYNKKVFEAMGLKAKYVYGSEFQLDKDYTLNVYRLALKTTLKRARRSMELIAREDENPKVAEVIYPIMQVNVMHYDGVDVYVGGMEQRKIHMLARELLPKKVVCIHNPVLTGLDGEGKMSSSKGNFIAVDDSPEEIRAKIKKAYCPAGVVEGNPIMMEIAKYFLEYPLTIKGPEKFGGDLTVNSYEELESLFKNKELHPMRLKNAVAEELIKILEPIRKRL", 990],
  ["pAcFRS.2.t1: pAcFRS variant L65V, A167D, R257G, SEQ ID NO: 8 (protein) MDEFEMIKRNTSEIISEEELREVLKKDEKSALIGFEPSGKIHLGHYLQIKKMIDLQNAGFDIIIVLADLHAYLNQKGELDEIRKIGDYNKKVFEAMGLKAKYVYGSEFQLDKDYTLNVYRLALKTTLKRARRSMELIAREDENPKVAEVIYPIMQVNGCHYRGVDVDVGGMEQRKIHMLARELLPKKVVCIHNPVLTGLDGEGKMSSSKGNFIAVDDSPEEIRAKIKKAYCPAGVVEGNPIMEIAKYFLEYPLTIKGPEKFGGDLTVNSYEELESLFKNKELHPMRLKNAVAEELIKILEPIRKRL", 6590]
]}
